Molecular target: T1, Fc tagged human TNFR1 (Sino Biological) (human, UniProt P19438 22-211, limits assumed)
T1 construct: Bought reagent; also called hTNFR1; hTNFR1-Fc; not shown: Fc tag of the bought protein
T1 sequence (looked up): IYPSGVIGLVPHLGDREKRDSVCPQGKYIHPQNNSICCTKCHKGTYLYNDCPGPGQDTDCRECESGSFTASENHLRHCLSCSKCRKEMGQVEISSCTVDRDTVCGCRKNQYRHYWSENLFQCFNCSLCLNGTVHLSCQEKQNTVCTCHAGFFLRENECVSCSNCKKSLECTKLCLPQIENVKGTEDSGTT
Assay: SPR, Biacore T200 multi cycle kinetics, receptor-Fc captured on Protein A chip, TNF 1.25-40 nM, 1:1 model
pKd: −log10 of the molar value.
ASSAY ENDPOINT: pKd

1. TNF mutein F7 (ligand, Human TNF mutein, SETVVG at positions 84-89; not shown: C-terminal FLAG tag and His6 tag from vector pANT65) VHSSSRTPSDKPVAHVVANPQAEGQLQWLNRRANALLANGVELRDNQLVVPSEGLYLIYSQVLFKGQGCPSTHVLLTHTISRISETVVGKVNLLSAIKSPCQRETPEGAEAKPWYEPIYLGGVFQLEKGDRLSVEINRPDYLDFAESGQVYFGIIAL
10.33
2. TNF mutein G4 (ligand, Human TNF mutein, SSTYNP at positions 84-89; also called mutTNF G4; mutTNF; not shown: C-terminal FLAG tag and His6 tag from vector pANT65) VRSSSRTPSDKPVAHVVANPQAEGQLQWLNRRANALLANGVELRDNQLVVPSEGLYLIYSQVLFKGQGCPSTHVLLTHTISRISSTYNPKVNLLSAIKSPCQRETPEGAEAKPWYEPIYLGGVFQLEKGDRLSAEINRPDYLDFAESGQVYFGIIAL
11.06
